Values compiled from patent US8501786B2.

# Assay target: human β3 adrenergic receptor (Homo sapiens, UniProt P13945)
# Construct: stably transfected with the cloned β-adrenergic receptor (β1, β2 or β3); expressed in transfected cells; host or cells: Chinese hamster ovary (CHO) cells, stably transfected
# Sequence (P13945 whole entry): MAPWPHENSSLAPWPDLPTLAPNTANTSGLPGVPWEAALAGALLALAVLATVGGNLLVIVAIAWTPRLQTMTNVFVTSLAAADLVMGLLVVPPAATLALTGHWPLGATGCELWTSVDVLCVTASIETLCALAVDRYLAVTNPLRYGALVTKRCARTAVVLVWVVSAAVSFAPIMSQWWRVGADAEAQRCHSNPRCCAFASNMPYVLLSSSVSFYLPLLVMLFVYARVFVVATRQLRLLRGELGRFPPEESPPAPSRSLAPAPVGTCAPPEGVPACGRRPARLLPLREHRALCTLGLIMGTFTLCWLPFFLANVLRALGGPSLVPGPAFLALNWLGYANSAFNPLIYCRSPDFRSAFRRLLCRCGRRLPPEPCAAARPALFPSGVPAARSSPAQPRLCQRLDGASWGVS
# Assay details: Functional assay: cAMP production (LANCE TR-FRET) in CHO cells stably transfected with cloned β3 adrenergic receptor
# Format: cell-based
# Details: Table 2; cAMP production, CHO cells expressing human β3 AR; read-out: Human β3 functional
pEC50: −log10 of the molar value.
Quantity name: pEC50

Compound: O=C(CN1CCSC1=O)Nc1ccc(CC2CC[C@H]([C@H](O)c3cccnc3)N2)cc1 (some centres unmarked)
pEC50: 8.00 to 9.00

Compound: NC(=O)c1nn(CC(=O)Nc2ccc(CC3CC[C@H]([C@H](O)c4cccnc4)N3)cc2)c(=O)c2ccccc12 (some centres unmarked)
pEC50: 8.00 to 9.00

Compound: O=C(Cn1c(=O)cnc2ccccc21)Nc1ccc(CC2CC[C@H]([C@H](O)c3cccnc3)N2)cc1 (some centres unmarked)
pEC50: 8.00 to 9.00

Compound: COC(=O)CCC(=O)Nc1ccc(CC2CC[C@H]([C@H](O)c3cccnc3)N2)cc1 (some centres unmarked)
pEC50: 6.00 to 7.00

Compound: O=C(Cc1cnccn1)Nc1ccc(CC2CC[C@H]([C@H](O)c3cccnc3)N2)cc1 (some centres unmarked)
pEC50: 7.00 to 7.96

Compound: O=C(Cc1csc(-c2ccccn2)n1)Nc1ccc(CC2CC[C@H]([C@H](O)c3cccnc3)N2)cc1 (some centres unmarked)
pEC50: 7.00 to 7.96

Compound: O=C(Cc1csc(C(F)(F)F)n1)Nc1ccc(CC2CC[C@H]([C@H](O)c3cccnc3)N2)cc1 (some centres unmarked)
pEC50: 7.00 to 7.96

Here is the next item to consider.
Which pEC50 value belongs to O=C(CC1NC(=O)NC1=O)Nc1ccc(CC2CC[C@H]([C@H](O)c3cccnc3)N2)cc1 (some centres unmarked) ?
6.00 to 7.00
